- test.system: SMARCA2 (Homo sapiens)
- Sequence (P51531 whole entry): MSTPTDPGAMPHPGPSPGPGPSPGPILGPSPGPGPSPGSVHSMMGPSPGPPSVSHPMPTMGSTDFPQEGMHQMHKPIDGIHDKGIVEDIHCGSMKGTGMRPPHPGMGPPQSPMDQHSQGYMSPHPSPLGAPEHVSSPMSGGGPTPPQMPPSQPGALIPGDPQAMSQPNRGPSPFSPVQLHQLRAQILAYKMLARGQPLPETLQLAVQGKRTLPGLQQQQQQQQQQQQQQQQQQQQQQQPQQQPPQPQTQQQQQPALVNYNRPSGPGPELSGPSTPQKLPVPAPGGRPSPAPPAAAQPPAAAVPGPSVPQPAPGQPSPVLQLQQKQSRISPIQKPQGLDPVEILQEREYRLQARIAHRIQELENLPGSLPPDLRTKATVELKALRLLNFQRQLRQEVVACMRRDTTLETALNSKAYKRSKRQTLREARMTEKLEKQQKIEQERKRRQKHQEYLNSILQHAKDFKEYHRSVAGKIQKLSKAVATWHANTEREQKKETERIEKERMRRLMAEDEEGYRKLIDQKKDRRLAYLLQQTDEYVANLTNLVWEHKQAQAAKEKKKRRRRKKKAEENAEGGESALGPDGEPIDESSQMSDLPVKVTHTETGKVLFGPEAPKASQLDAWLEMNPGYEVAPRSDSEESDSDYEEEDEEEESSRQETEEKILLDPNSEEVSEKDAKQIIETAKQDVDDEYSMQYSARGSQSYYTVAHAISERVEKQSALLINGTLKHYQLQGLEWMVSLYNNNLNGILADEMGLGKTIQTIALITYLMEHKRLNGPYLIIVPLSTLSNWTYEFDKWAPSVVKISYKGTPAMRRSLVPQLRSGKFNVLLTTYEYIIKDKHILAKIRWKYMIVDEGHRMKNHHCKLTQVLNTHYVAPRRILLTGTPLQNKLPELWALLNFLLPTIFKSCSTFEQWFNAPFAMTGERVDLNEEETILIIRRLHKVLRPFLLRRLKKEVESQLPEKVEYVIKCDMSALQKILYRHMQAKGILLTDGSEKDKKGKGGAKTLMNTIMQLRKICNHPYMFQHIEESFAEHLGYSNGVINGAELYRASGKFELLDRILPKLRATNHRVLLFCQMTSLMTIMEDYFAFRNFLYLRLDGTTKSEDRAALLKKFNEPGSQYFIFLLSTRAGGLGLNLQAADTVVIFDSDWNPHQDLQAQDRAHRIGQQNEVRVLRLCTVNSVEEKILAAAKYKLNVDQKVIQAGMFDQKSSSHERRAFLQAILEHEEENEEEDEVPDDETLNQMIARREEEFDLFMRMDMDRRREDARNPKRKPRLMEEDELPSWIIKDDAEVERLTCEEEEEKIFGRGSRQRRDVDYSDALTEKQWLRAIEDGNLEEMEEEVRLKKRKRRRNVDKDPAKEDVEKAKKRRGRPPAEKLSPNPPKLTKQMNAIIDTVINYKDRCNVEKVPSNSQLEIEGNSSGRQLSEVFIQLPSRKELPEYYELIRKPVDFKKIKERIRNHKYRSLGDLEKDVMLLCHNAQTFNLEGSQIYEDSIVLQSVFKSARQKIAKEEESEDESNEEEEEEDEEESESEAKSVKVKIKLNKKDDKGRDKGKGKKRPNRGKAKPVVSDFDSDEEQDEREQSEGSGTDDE
- test.description: MSD SMARCA2 degradation in NCI-H1299 cell line (24 h)
- Assay type: cell-based
- Parameters: HC: NCI-H1299 cells treated with DMSO; host or cells: NCI-H1299
- measurement.setup: NCI-H1299 cells, read-out: SMARCA2 MSD H1299 degradation 24 h: External Abs-DC50
Quick list: DC50 per entry.

Cn1c(=O)n(C2CCC(=O)NC2=O)c2ccc(CCCCCN3CCCC(n4cc(-c5cc(-c6ccccc6O)nnc5N)cn4)C3)cc21 (stereo not drawn) | 100 to 500 nM
Cn1c(=O)n(C2CCC(=O)NC2=O)c2cccc(CCCOCCCN3CCN(Cc4ccc(-c5cc(-c6ccccc6O)nnc5N)cc4)CC3)c21 (stereo not drawn) | < 100 nM

We next turn to a different compound, shown below.
Asked: Form entry - test system: SMARCA2 (Homo sapiens); read-out: DC50; compound: CN(Cc1ccc(N2CCN(c3cc(-c4ccccc4O)nnc3N)CC2)cc1)CC1CCN(Cc2cccc3c2n(C)c(=O)n3C2CCC(=O)NC2=O)CC1 (stereo not drawn)
Given back: < 100 nM
